test system: HS 578T breast; experiment: NCI tumour cell line growth inhibition, 48 h
measured-metric: TGI

[[record]]
compound = "CC1=NN(C(=O)CC(=O)Nc2ccc(Cl)cc2)C(=O)C1N=Nc1ccc(S(=O)(=O)c2ccc(N=NC3C(=O)N(C(=O)CC(=O)Nc4ccc(Cl)cc4)N=C3C)cc2)cc1 (centres undefined)"
measured_metric = "TGI"
measured_result = "> 100 µM"

[[record]]
compound = "C=C1[C@@H](O)C[C@H]2C(C)(C)C[C@H](Cl)C[C@]2(C)[C@H]1C[C@H](O)[C@H]1CC(=O)NC1=O"
measured_metric = "TGI"
measured_result = "0.274 µM"

[[record]]
compound = "O=c1[nH]c2cc3[nH]c(=O)c(=O)[nH]c3cc2[nH]c1=O"
measured_metric = "TGI"
measured_result = "> 100 µM"

[[record]]
compound = "COc1ccc2oc(=O)c(-c3csc(-c4ccccc4)n3)cc2c1"
measured_metric = "TGI"
measured_result = "94.5 µM"


Hi, could you look up TGI for each item in my list?
1. CC(C)(C)CN1[C@@H]2CCCC[C@H]2N(CC(C)(C)C)P1(=O)C(O)/C=C/c1ccccc1 (some centres undefined)
2. O=C(O)c1cc2cc(O)ccc2[nH]1
3. N#CCN1CCN(CC#N)CCN(CC#N)CCN(CC#N)CC1
4. CC(C)C[C@H]1C(=O)N2CCC[C@H]2[C@]2(O)O[C@](NC(=O)[C@@H]3C=C4c5cccc6[nH]c(Br)c(c56)C[C@H]4N(C)C3)(C(C)C)C(=O)N12
5. O=C(/N=C1/OC(CN2CCOCC2)CN1C(=O)Nc1ccccc1)Nc1ccccc1 (centres undefined)

["73.2 µM", "> 100 µM", "> 100 µM", "> 100 µM", "> 100 µM"]

====

system: EKVX NSCLC; experiment: NCI tumour cell line growth inhibition, 48 h
measured-metric: TGI

Known results for compounds:
[[record]]
compound = "C/C(=C1/N=C(c2ccccc2)OC1=O)c1ccccc1"
measured_result = "> 100 µM"

[[record]]
compound = "O=C(NCCNC(=O)c1ccc(F)cc1)Nc1ccc(-n2cc(-c3ccncc3)c(-c3ccc(Cl)c(O)c3)n2)cc1"
measured_result = "> 100 µM"


Hi, could you look up TGI for each item in my list?
1. Nc1ncc(N)c(NCC2(CO)CC(CCc3ccccc3)C2)n1 (stereo unspecified)
2. O=S1(=O)c2ccccc2-c2nccc3ccnc1c23
3. COC(=O)[C@@H]1[C@H](O)[C@H](C)[C@H](O)[C@H](C)/C=C\C=C(C)C(=O)Nc2c(C)c(OC(C)=O)c3c(c2O)C(=O)C(C)=C2OCOC(=C23)C(C)=C[C@@](C)(O)[C@H](O)[C@@H](C)[C@H]1OC(C)=O

1. 22.7 µM
2. > 100 µM
3. > 100 µM

Hi, could you look up TGI for each item in my list?
1. CCCCCCCC(=O)NS(=O)(=O)c1ccccc1
2. COc1ccc(C2CC(c3cccc(OC)c3)=NN2C(=O)c2cc(OC)c(OC)c(OC)c2)cc1 (stereo unspecified)
3. O=C1O/C(=C(/Cl)c2c3ccccc3cc3ccccc23)c2ccccc21

> 100 µM
> 100 µM
> 100 µM

====

Provide the recorded TGI for the entries that follow.
tested on: MOLT-4 leukemia; assay: NCI tumour cell line growth inhibition, 48 h
Numbers only, in µM.

[[record]]
test_smiles = "CC(=O)c1c2c(cc3c1CC1(C3)Cc3cc4c(c(C(C)=O)c3C1)CCCC4)CCCC2"
measured_metric = "TGI"
measured_result = 76.5


Turning now to a further molecule:
Would you mind telling me what TGI value was observed for Cc1cccc(/C=C2/C(=O)Nc3ccccc32)n1 ?
44.5

====

test system: SK-MEL-28 melanoma; experiment: NCI tumour cell line growth inhibition, 48 h
Provide the recorded GI50 for the entries that follow.

Known results for compounds:
[[record]]
test_smiles = "C=C1C(=O)O[C@H]2[C@H]1CC/C(COC(=O)C(=O)c1c[nH]c3ccc(Cl)cc13)=C\\CC[C@@]1(C)O[C@@H]21"
experimental_target = "SK-MEL-28 melanoma"
measured_result = "1.88 µM"

[[record]]
test_smiles = "CCOc1ccc(NC(=O)c2cc3ccccc3cc2O)cc1"
experimental_target = "SK-MEL-28 melanoma"
measured_result = "> 100 µM"

[[record]]
test_smiles = "C[C@@H]1CC[C@@H]2[C@@H]1[C@H](OC(=O)c1ccc3ccccc3c1)[C@]1(C3CCCCC3)C[C@@H](OC(=O)CO)[C@@]2(C)O1"
experimental_target = "SK-MEL-28 melanoma"
measured_result = "13.9 µM"


Would you mind telling me what GI50 value was observed for C[n+]1cc2cc3c(cc2c2ccccc21)OCO3 ?
3.49 µM

====

test system: NCI-H460 lung; assay: NCI tumour cell line growth inhibition, 48 h
Lab note: anything with TGI at or over 40 µM counts as y; the rest go in n.

[[record]]
compound = "CCOC(=O)C(O)Cc1cnc2ccccc2n1 (configuration not stated)"
cat = "y"

[[record]]
compound = "OCCSCC/C(=N\\N=C(/CCSCCO)c1ccccc1)c1ccccc1"
cat = "y"

[[record]]
compound = "O=[N+]([O-])c1ccc2nc3ccscc-3c2c1"
cat = "y"


Reported TGI reaches at least 40 µM for Oc1ccccc1-c1n[nH]c(-c2ccccc2O)n1 ?
y

Reported TGI reaches at least 40 µM for CCOC(=O)C1=C(c2ccccc2)NC(c2ccccc2)=C(C(=O)OCC)c2c1c(=O)cc[nH]c2=O ?
y

Reported TGI reaches at least 40 µM for COc1ccc(C2SCC(=O)N2NC(=O)C(O)c2ccccc2)cc1 (configuration not stated) ?
y

====

tested on: HT29 colon; assay: NCI tumour cell line growth inhibition, 48 h
measured-metric: TGI (µM)
Answers are plain numbers, in µM.

[[record]]
compound = "Nc1ncc(N)c(NCC2(CO)CC(CCc3ccccc3)C2)n1 (stereo not given)"
unit_spec = "µM"
measured_result = 20.5


Turning now to a further compound:
Would you mind telling me what TGI value was observed for COC1=CC(=O)c2c(n[nH]c2CCNC(=O)OCc2ccccc2)C1=O ?
40.8

====

system: SNB-75 CNS; assay: NCI tumour cell line growth inhibition, 48 h
measured-metric: TGI

Known results for molecules:
[[record]]
molecule = "CC1(C)CC2C(/C1=N/O)C1(C)CCCC2(C)C1O (stereo not given)"
experimental_target = "SNB-75 CNS"
measured_result = "> 100 µM"

[[record]]
molecule = "NCCn1cnc2nc(NC(=O)c3ccccc3)[nH]c(=O)c21"
experimental_target = "SNB-75 CNS"
measured_result = "> 100 µM"

[[record]]
molecule = "O=C([CH-]C(=O)c1ccccc1)c1ccccc1.[CH3-].[CH3-].[CH3-].[Sn+4]"
experimental_target = "SNB-75 CNS"
measured_result = "> 100 µM"

[[record]]
molecule = "COC(=O)C1=CO[C@@H](OC2OC(CO)C(O)C(O)C2O)[C@@H]2[C@H](C)[C@@H](O)[C@@H](O)[C@]12O (stereo not given in full)"
experimental_target = "SNB-75 CNS"
measured_result = "> 100 µM"


Would you mind telling me what TGI value was observed for Nc1ncc(N)c(NCC2(CO)CC(CCc3ccccc3)C2)n1 (stereo not given) ?
29.4 µM

====

test system: RPMI-8226 leukemia; assay: NCI tumour cell line growth inhibition, 48 h
measured-metric: TGI

Known results for molecules:
[[record]]
molecule = "CC1(C)Cc2nnsc2C2=C1C(=O)CCS2"
measured_metric = "TGI"
measured_result = "> 100 µM"

[[record]]
molecule = "N#CCCN(CCCN(C(=O)Nc1ccc(NC(=O)N(CCCN(CCC#N)C(N)=O)c2ccccc2)cc1)c1ccccc1)C(N)=O"
measured_metric = "TGI"
measured_result = "> 100 µM"

[[record]]
molecule = "Oc1ccc2ccccc2c1NCn1nc(CCCCCCCCc2nn(CNc3c(O)ccc4ccccc34)c(=S)o2)oc1=S"
measured_metric = "TGI"
measured_result = "> 100 µM"

[[record]]
molecule = "O=C1CC2(CCNCC2)C(=O)N1N1CCCCC1"
measured_metric = "TGI"
measured_result = "> 100 µM"

[[record]]
molecule = "COc1ccc2c(c1)C1c3ccccc3CCN1CCC2 (configuration not stated)"
measured_metric = "TGI"
measured_result = "96.8 µM"

[[record]]
molecule = "CCOC(=O)Nc1ccc(C(=O)/C=C/c2ccccc2)cc1"
measured_metric = "TGI"
measured_result = "22.5 µM"

[[record]]
molecule = "O=c1cc(-c2ccc3ccccc3c2)[nH]c2ncccc12"
measured_metric = "TGI"
measured_result = "60.7 µM"

[[record]]
molecule = "Oc1c(Cl)cc(CN(Cc2cc(Cl)c(O)c(Cl)c2)C2CCCCC2)cc1Cl"
measured_metric = "TGI"
measured_result = "> 100 µM"

[[record]]
molecule = "NC1=NCC(c2ccccn2)C1c1ccc(F)cc1 (configuration not stated)"
measured_metric = "TGI"
measured_result = "> 100 µM"

[[record]]
molecule = "CC(C(=O)O)C1Nc2ccccc2NC1=O (configuration not stated)"
measured_metric = "TGI"
measured_result = "> 100 µM"


Hi, could you look up TGI for each item in my list?
1. CC(C)=CC[C@H]1C[C@@]2(CC=C(C)C)C(=O)/C(=C(/O)c3ccccc3)C(=O)[C@](CC=C(C)C)(C2=O)C1(C)C
2. C=C(C[C@@H](O)[C@H](C)NC(=O)OCc1ccccc1)C(=O)OC(C)(C)C

1: > 100 µM; 2: > 100 µM
